experiment: forskolin-driven CRE-LacZ activity in PC12 – cell-based, CRE-LacZ reporter, forskolin-stimulated, primary screen (AID 1146); conditions: luminescence, 4.5 h, higher = more signal, called active from +8 up or from −8 down;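 further: PC12 cells with 6xCRE LacZ reporter stimulated by forskolin 10 µM; beta-galactosidase reporter signal reflecting CREB driven transcription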
Label Met when z-score is at or above -0.3; anything below gets Not met.

Solved cases (5 shown):
- COMPOUND: "C=CCC(OC(C)=O)[C@@H]1[C@@H](N(Cc2cccc3ccccc23)C(=O)Cc2ccc(F)cc2)c2cc(OCCCO)ccc2N1C(=O)c1ccc2ccccc2c1 (stereo partly drawn)"
  CLASS: "Met"
- COMPOUND: "CN1C(=O)C2C=CC(C(O)c3cccn3C)N(Nc3ccc([N+](=O)[O-])cc3[N+](=O)[O-])C2C1=O (stereo not drawn)"
  CLASS: "Met"
- COMPOUND: "CCOC(=O)C1=CC[C@@H](c2ccccc2)N(S(=O)(=O)c2ccc(C)cc2)[C@H]1c1ccccc1"
  CLASS: "Met"
- COMPOUND: "C=C(C(=O)CC[C@H](OC(=O)c1ccccc1-c1ccccc1C(=O)O)c1cccc(OCCO)c1)C(C)C"
  CLASS: "Met"
- COMPOUND: "CCCC[C@@H](O)C1=C(COc2ccccc2)C[C@H]2C(=O)N(Cc3ccccc3)C(=O)[C@H]2[C@H]1CO"
  CLASS: "Not met"

Input line: Would you say CCCCCCCCCC(O)C1C=CC2C(=O)N(c3ccccc3)C(=O)C2N1Nc1cc(OC)c(OC)c(OC)c1 (stereo not drawn) shows z-score at minimum -0.3?
Output line: Met

Input line: Would you say CN(C)C(=O)[C@]1(Cc2ccccc2CN=[N+]=[N-])N=C(c2ccc(OCCCO)cc2)O[C@@H]1c1ccccc1 shows z-score at minimum -0.3?
Output line: Not met
